The reported numbers originate from ChEMBL document CHEMBL1154339.

Would you mind telling me the reported Activity of each entry?
Test system: Rattus norvegicus
Experiment: Antihyperglycemic activity in sucrose loaded Charles Foster/Wistar rat model assessed as reduction in blood glucose level at 100 mg/kg
Assay type: functional
Set-up: scale not given: the % may be the effect or the level left
Answers are plain numbers, in %.

{"molecule": "CCCCN(CCCC)CC1(COCC)COc2ccc3c(C)cc(=O)oc3c2C1=O (configuration not stated)", "tested-target": "Rattus norvegicus", "endpoint-result": 30.6}

Items follow; give Activity for each.
1. Cc1cc(=O)oc2c3c(ccc12)OCC(CO)(CN1CCOCC1)C3=O (configuration not stated)
2. Cc1cc(=O)oc2c3c(ccc12)OCC(CO)(CN1CCCC1)C3=O (configuration not stated)
3. CCOCC1(CN2CCCC2)COc2ccc3c(C)cc(=O)oc3c2C1=O (configuration not stated)
4. CCOCC1(CN2CCN(C)CC2)COc2ccc3c(C)cc(=O)oc3c2C1=O (configuration not stated)
5. CCOCC1(CN2CCCCC2)COc2ccc3c(C)cc(=O)oc3c2C1=O (configuration not stated)
6. CCOCC1(CN2CCOCC2)COc2ccc3c(C)cc(=O)oc3c2C1=O (configuration not stated)

Return:
[28.2, 30.3, 31.8, 32.5, 38.1, 35.5]

###

Target: Maltase-glucoamylase (Homo sapiens) (UniProt O43451)
Sequence (O43451 whole entry, looked up): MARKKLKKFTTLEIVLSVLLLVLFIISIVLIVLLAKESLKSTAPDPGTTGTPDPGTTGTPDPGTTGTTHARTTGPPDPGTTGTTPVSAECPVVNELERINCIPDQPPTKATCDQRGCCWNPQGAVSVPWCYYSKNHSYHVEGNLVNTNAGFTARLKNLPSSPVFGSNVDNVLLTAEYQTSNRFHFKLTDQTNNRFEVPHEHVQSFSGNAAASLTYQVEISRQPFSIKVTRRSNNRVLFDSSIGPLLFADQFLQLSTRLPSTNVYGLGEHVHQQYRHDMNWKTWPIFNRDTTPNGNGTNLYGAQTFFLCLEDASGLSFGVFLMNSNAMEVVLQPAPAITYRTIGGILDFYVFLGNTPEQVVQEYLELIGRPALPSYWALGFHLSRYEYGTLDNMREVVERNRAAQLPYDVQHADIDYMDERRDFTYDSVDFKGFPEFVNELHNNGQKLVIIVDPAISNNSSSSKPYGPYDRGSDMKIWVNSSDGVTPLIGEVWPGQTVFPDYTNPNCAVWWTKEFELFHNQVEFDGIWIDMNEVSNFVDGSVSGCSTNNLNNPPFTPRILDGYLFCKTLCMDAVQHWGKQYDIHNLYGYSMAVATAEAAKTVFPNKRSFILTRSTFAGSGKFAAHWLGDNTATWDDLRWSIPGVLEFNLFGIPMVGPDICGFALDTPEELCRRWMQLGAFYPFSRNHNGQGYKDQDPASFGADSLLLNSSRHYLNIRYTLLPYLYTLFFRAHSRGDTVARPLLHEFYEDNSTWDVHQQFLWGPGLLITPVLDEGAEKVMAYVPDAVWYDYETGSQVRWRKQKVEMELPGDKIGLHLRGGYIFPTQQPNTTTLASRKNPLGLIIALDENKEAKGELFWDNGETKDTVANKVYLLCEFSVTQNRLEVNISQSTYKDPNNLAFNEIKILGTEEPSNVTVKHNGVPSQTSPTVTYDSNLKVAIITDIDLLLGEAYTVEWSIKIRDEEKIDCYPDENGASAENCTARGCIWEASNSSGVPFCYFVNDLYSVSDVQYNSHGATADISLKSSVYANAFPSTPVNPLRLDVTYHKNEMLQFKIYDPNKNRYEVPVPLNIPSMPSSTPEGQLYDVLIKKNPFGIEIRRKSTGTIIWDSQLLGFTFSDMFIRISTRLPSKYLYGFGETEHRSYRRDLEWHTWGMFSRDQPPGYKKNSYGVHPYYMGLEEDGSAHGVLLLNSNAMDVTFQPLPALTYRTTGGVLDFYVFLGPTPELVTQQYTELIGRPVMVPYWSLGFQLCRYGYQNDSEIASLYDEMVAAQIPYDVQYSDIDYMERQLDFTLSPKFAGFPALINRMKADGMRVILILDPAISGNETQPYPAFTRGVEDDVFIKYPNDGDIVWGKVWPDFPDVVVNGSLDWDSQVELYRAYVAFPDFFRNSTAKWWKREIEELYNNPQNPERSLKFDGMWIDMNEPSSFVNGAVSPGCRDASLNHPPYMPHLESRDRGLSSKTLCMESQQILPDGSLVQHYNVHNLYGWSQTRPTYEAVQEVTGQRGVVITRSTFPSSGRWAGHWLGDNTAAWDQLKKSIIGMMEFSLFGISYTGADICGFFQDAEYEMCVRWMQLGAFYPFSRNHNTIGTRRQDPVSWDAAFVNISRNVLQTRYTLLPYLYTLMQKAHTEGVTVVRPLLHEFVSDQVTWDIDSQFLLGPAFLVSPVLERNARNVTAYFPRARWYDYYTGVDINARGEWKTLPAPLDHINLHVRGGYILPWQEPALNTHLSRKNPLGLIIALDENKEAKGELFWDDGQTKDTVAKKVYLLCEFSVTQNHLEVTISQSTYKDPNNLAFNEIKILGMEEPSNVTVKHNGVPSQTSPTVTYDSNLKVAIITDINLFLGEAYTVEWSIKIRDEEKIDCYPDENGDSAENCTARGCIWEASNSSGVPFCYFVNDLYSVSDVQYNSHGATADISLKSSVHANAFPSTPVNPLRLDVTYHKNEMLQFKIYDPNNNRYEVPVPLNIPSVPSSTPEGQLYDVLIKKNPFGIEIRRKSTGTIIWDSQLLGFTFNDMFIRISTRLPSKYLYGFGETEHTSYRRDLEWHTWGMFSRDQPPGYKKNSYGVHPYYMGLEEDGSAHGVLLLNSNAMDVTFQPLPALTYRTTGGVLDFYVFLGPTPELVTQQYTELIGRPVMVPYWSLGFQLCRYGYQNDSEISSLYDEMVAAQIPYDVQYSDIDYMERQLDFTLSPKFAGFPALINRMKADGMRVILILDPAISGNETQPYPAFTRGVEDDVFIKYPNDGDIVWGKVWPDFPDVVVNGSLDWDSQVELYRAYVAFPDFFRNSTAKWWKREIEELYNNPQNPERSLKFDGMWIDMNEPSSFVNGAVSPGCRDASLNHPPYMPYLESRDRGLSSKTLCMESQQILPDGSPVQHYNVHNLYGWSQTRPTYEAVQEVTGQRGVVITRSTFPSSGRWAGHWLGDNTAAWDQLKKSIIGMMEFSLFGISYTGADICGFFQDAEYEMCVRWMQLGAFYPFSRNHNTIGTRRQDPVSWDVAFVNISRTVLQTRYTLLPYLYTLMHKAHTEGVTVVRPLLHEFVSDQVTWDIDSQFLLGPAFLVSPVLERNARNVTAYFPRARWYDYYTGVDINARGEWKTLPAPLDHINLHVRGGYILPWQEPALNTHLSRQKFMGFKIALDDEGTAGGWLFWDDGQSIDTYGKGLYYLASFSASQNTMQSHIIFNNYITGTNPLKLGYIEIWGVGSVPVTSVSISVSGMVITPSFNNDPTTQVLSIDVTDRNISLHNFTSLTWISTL
Assay: Inhibition of alpha-glucosidase at 100 uM
Calls of active or inactive are those of the source. The rule behind the calls is not given here.
assay-endpoint: inhibition

See these solved cases before continuing.
{"molecule": "Cc1cc(=O)oc2c3c(ccc12)OCC(CN1CCN(C)CC1)(CN1CCN(C)CC1)C3=O", "assay-endpoint": "inhibition", "endpoint-result": "6.4%"}
{"molecule": "CCCCN(CCCC)CC1(COCC)COc2ccc3c(C)cc(=O)oc3c2C1=O (stereo not given)", "assay-endpoint": "inhibition", "endpoint-result": "27.9%"}
{"molecule": "CCOCC1(CN(CC)CC)COc2ccc3c(C)cc(=O)oc3c2C1=O (stereo not given)", "assay-endpoint": "inhibition", "endpoint-result": "inactive"}
{"molecule": "CCOCC1(CN2CCCCC2)COc2ccc3c(C)cc(=O)oc3c2C1=O (stereo not given)", "assay-endpoint": "inhibition", "endpoint-result": "inactive"}
{"molecule": "Cc1cc(=O)oc2c3c(ccc12)OCC(CO)(CN1CCOCC1)C3=O (stereo not given)", "assay-endpoint": "inhibition", "endpoint-result": "34.3%"}
{"molecule": "CCOCC1(CN2CCCC2)COc2ccc3c(C)cc(=O)oc3c2C1=O (stereo not given)", "assay-endpoint": "inhibition", "endpoint-result": "12%"}
{"molecule": "CCCCN(CCCC)CC1(CN(CCCC)CCCC)COc2ccc3c(C)cc(=O)oc3c2C1=O", "assay-endpoint": "inhibition", "endpoint-result": "inactive"}
{"molecule": "CCOCC1(CN2CCN(C)CC2)COc2ccc3c(C)cc(=O)oc3c2C1=O (stereo not given)", "assay-endpoint": "inhibition", "endpoint-result": "inactive"}

Items follow; give inhibition for each.
1. Cc1cc(=O)oc2c3c(ccc12)OCC(CO)(CN1CCCC1)C3=O (stereo not given)
2. Cc1cc(=O)oc2c3c(ccc12)OCC(CN1CCCCC1)(CN1CCCCC1)C3=O

Return:
22.1%
7.3%

###

Biological target: Glucose-6-phosphatase catalytic subunit 1 (Homo sapiens)
Test: Inhibition of glucose 6 phosphatase assessed as inorganic phosphate release at 100 uM
Would you mind telling me the reported inhibition of each entry?
Give bare numbers, in %.

See these solved cases before continuing.
{"molecule": "Cc1cc(=O)oc2c3c(ccc12)OCC(CO)(CN1CCCCC1)C3=O (stereo not given)", "inhibition, %": 7.36}
{"molecule": "Cc1cc(=O)oc2c3c(ccc12)OCC(CN1CCOCC1)(CN1CCOCC1)C3=O", "inhibition, %": 6.78}
{"molecule": "Cc1cc(=O)oc2c3c(ccc12)OCC(CN1CCN(C)CC1)(CN1CCN(C)CC1)C3=O", "inhibition, %": 13}
{"molecule": "CCOCC1(CN2CCN(c3ccccn3)CC2)COc2ccc3c(C)cc(=O)oc3c2C1=O (stereo not given)", "inhibition, %": 9.67}

Now for the molecule whose inhibition we want.
Enquiry: Need inhibition of Cc1cc(=O)oc2c3c(ccc12)OCC(CN1CCCC1)(CN1CCCC1)C3=O , thanks.
Return: 8.28
